Recorded Kd values for a group of binders are listed next.
Molecular target: T1, cynomolgus TREM-1-Fc (cynomolgus monkey)
T1 construct: also called cTREM-1
T1 chain: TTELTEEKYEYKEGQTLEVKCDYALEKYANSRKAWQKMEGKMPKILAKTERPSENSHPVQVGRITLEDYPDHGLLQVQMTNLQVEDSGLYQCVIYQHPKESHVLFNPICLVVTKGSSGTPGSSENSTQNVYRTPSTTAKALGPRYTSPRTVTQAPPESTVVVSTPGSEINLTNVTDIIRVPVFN
Experiment: SPR (ProteOn), antibody captured via anti-Fc, TREM-1-Fc as analyte, 1:1 Langmuir fit, 25 C
Method: Binding studies were performed on a ProteOn Analyzer (BioRad) that measures molecular interactions in real time through surface plasmon resonance. Experiments were run at 25° C. and the samples were stored at 15° C. in the sample compartment. The signal (RU, response units) reported by the ProteOn is directly correlated to the mass on the individual sensor chip surfaces in the six parallel flow cells. […]
API: value field is a number in nM; no unit string.

Sure, the documented Kd for mAb 0333 (mAb 0170 variant, heavy chain A59Y, light chain F32A, E27Q, E97Q) (antibody, human IgG4 S228P, kappa, V domains shown) VH: EVQLVESGGGLVQPGGSLKLSCAASGFTFSTYAMHWVRQASGKGLEWVGRIRTKSSNYYTYYAASVKGRFTISRDDSKNTAYLQMNSLKTEDTAVYYCTRDMGIRRQFAYWGQGTLVTVSS VL: DIVLTQSPDSLAVSLGERATINCRASQSVDTADYSFLHWYQQKPGQPPKLLIYRASNLESGVPDRFSGSGSGTDFTLTISSLQAEDVAVYYCQQSNQDPYTFGQGTKLEIKR is 0.3

Lookup result for mAb 0170 (humanised TREM-1 antibody, mAb 0170 of WO2013/120553) (antibody, V domains shown, also called mAb 170) VH: EVQLVESGGGLVQPGGSLKLSCAASGFTFSTYAMHWVRQASGKGLEWVGRIRTKSSNYATYYAASVKGRFTISRDDSKNTAYLQMNSLKTEDTAVYYCTRDMGIRRQFAYWGQGTLVTVSS VL: DIVLTQSPDSLAVSLGERATINCRASESVDTFDYSFLHWYQQKPGQPPKLLIYRASNLESGVPDRFSGSGSGTDFTLTISSLQAEDVAVYYCQQSNEDPYTFGQGTKLEIKR ; measured Kd: 2

// mAb 0318 (mAb 0170 variant, light chain E27Q, E97Q) (antibody, human IgG4 S228P, kappa, V domains shown, Charge patch mutations) VH: EVQLVESGGGLVQPGGSLKLSCAASGFTFSTYAMHWVRQASGKGLEWVGRIRTKSSNYATYYAASVKGRFTISRDDSKNTAYLQMNSLKTEDTAVYYCTRDMGIRRQFAYWGQGTLVTVSS VL: DIVLTQSPDSLAVSLGERATINCRASQSVDTFDYSFLHWYQQKPGQPPKLLIYRASNLESGVPDRFSGSGSGTDFTLTISSLQAEDVAVYYCQQSNQDPYTFGQGTKLEIKR : Kd value = 2

Kd in this record for mAb 0325 (mAb 0170 variant, heavy chain N57S) (antibody, human IgG4 S228P, kappa, V domains shown) VH: EVQLVESGGGLVQPGGSLKLSCAASGFTFSTYAMHWVRQASGKGLEWVGRIRTKSSSYATYYAASVKGRFTISRDDSKNTAYLQMNSLKTEDTAVYYCTRDMGIRRQFAYWGQGTLVTVSS VL: DIVLTQSPDSLAVSLGERATINCRASESVDTFDYSFLHWYQQKPGQPPKLLIYRASNLESGVPDRFSGSGSGTDFTLTISSLQAEDVAVYYCQQSNEDPYTFGQGTKLEIKR : 1

Record mAb 0317 (mAb 0170 variant, light chain E27Q, E97S) (antibody, human IgG4 S228P, kappa, V domains shown, Charge patch mutations) VH: EVQLVESGGGLVQPGGSLKLSCAASGFTFSTYAMHWVRQASGKGLEWVGRIRTKSSNYATYYAASVKGRFTISRDDSKNTAYLQMNSLKTEDTAVYYCTRDMGIRRQFAYWGQGTLVTVSS VL: DIVLTQSPDSLAVSLGERATINCRASQSVDTFDYSFLHWYQQKPGQPPKLLIYRASNLESGVPDRFSGSGSGTDFTLTISSLQAEDVAVYYCQQSNSDPYTFGQGTKLEIKR . Reported Kd: 3
